- Test system: Staphylococcus aureus
- protocol: Antibacterial activity against Staphylococcus aureus SG511 assessed as zone of growth inhibition by agar diffusion assay
- Format: functional
readout-type: inhibition zone (IZ) (mm)
// return numeric value only (unit: mm, not printed)

CC(C)(C)OC(=O)C1=C(CN2CCN(c3nc(=O)c4cc(C(F)(F)F)cc([N+](=O)[O-])c4s3)CC2)CS[C@@H]2[C@H](NC(=O)Cc3ccccc3)C(=O)N12 23
COc1ccc(COC(=O)C2=C(CN3CCN(c4nc(=O)c5cc(C(F)(F)F)cc([N+](=O)[O-])c5s4)CC3)CS[C@@H]3[C@H](NC(=O)Cc4ccccc4)C(=O)N23)cc1 37

Request: Output reported inhibition zone (IZ) of the compound "O=C(Cc1ccccc1)N[C@@H]1C(=O)N2C(C(=O)O)=C(COC(=O)N3CCN(c4nc(=O)c5cc(C(F)(F)F)cc([N+](=O)[O-])c5s4)CC3)CS[C@H]12" on Staphylococcus aureus.
Result: 27

Request: Output reported inhibition zone (IZ) of the compound "O=C(Cc1ccccc1)N[C@@H]1C(=O)N2C(C(=O)O)=C(CN3CCN(c4nc(=O)c5cc(C(F)(F)F)cc([N+](=O)[O-])c5s4)CC3)CS[C@H]12" on Staphylococcus aureus.
Result: 32

---

- Test system: Bacillus subtilis
- protocol: Antibacterial activity against Bacillus subtilis ATCC 6633 assessed as zone of growth inhibition by agar diffusion assay
- Assay type: functional
readout-type: inhibition zone (IZ) (mm)
// return numeric value only (unit: mm, not printed)

Look over these answered cases.
CC(C)(C)OC(=O)C1=C(CN2CCN(c3nc(=O)c4cc(C(F)(F)F)cc([N+](=O)[O-])c4s3)CC2)CS[C@@H]2[C@H](NC(=O)Cc3ccccc3)C(=O)N12 27
O=C(Cc1ccccc1)N[C@@H]1C(=O)N2C(C(=O)O)=C(COC(=O)N3CCN(c4nc(=O)c5cc(C(F)(F)F)cc([N+](=O)[O-])c5s4)CC3)CS[C@H]12 41
O=C(Cc1ccccc1)N[C@@H]1C(=O)N2C(C(=O)O)=C(CN3CCN(c4nc(=O)c5cc(C(F)(F)F)cc([N+](=O)[O-])c5s4)CC3)CS[C@H]12 41

Request: Identify inhibition zone (IZ) associated with the compound "COc1ccc(COC(=O)C2=C(CN3CCN(c4nc(=O)c5cc(C(F)(F)F)cc([N+](=O)[O-])c5s4)CC3)CS[C@@H]3[C@H](NC(=O)Cc4ccccc4)C(=O)N23)cc1"
Result: 36
